System: LXFL 529 NSCLC
Assay: NCI tumour cell line growth inhibition, 48 h
Documented TGI across a set of compounds

Recorded TGI, per entry:
compound | TGI
Cc1ccccc1N=Nc1c(-c2ccccc2)nn(C(=O)CC(=O)Nc2cccc(Cl)c2)c1-c1ccccc1 | > 31.6 µM
COc1ccc2c(c1)CCc1c(CO)c(COC(=O)NC(C)C)n(C)c1-2 | 15.9 µM

Give the measured TGI of COC(=O)CC(C(C(C)=O)C(=O)OCc1ccccc1)N1C(=O)OC(c2ccccc2)C1c1ccccc1 (configuration not stated) .
> 100 µM

Name the recorded TGI for Clc1ccc(OCc2nnc3n2N=C(c2ccccc2)CS3)c(Cl)c1 .
> 100 µM

Please give the measured TGI for this compound: C1CC2=C(C1)C1=S(S2)SC2=C1CCC2
> 100 µM
